target-or-system: T1, recombinant human BCMA protein having a C-terminal Fc tag (ACRO Biosystems, Cat No.: BC7-H5254) (human, UniProt Q02223 1-54)
T1 construct: Bought protein; Clones were also screened on CHO cells expressing human BCMA (CHO-BCMA); also called CD269; not shown: C-terminal Fc tag
T1 sequence (looked up): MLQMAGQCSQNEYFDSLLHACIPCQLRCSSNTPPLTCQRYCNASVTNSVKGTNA
measurement-description: phage ELISA: plate coated with recombinant human BCMA protein (Fc control protein in parallel) or CHO-BCMA cells; phage supernatant, HRP anti-M13, A450
measured-endpoint: binding result

{"binder": "269A37965 (VHH, Llama VHH from an immune phage library; also called anti-BCMA sdAb) VHH: AVQLVESGGGLVQAGDSLRLSCTASGATLTNDHMAWFRQAPGKGREFVAAIDWSGRTTNYADPVEGRFTISRNNAKNTVYLEMNSLKLEDTAVYYCAVLRAWISYDNDYWGQGTQVTVSS", "recorded-value": "binds"}
{"binder": "269A37355 (VHH, Llama VHH from an immune phage library; also called anti-BCMA sdAb) VHH: AVQLVDSGGGLVQPGGSLRLSCVASGGIFVINAMGWYRQAPGKQRELVASIRGLGRTNYDDSVKGRFTISRDNANNTVYLQMNSLEPEDTAVYYCTVYVTLLGGVNRDYWGQGTQVTVSS", "recorded-value": "binds"}
{"binder": "269A37948 (VHH, Llama VHH from an immune phage library; also called anti-BCMA sdAb) VHH: AVQLVESGGGLVQAGDSLRLTCTASGRAFSTYFMAWFRQAPGKEREFVAGIAWSGGSTAYADSVKGRFTISRDNAKNTVYLQMNSLKSEDTAVYYCASRGIEVEEFGAWGQGTQVTVSS", "recorded-value": "binds"}
